- ASSAY_TEXT: Aqueous solubility of the compound in PBS buffer at pH 5 by HPLC analysis
- Assay type: physicochemical
ASSAY_ENDPOINT: solubility (µg/mL)
Numbers only, in µg/mL.

I have this molecule here, O=C(/C=C/c1ccc2ccccc2n1)N1CCC=C(Cl)C1=O , and I need its recorded solubility.
1990

###

I'd be grateful if you could share measured solubility for these entries.
- ASSAY_TEXT: Aqueous solubility of the compound in pure water by HPLC analysis
- Assay type: physicochemical
Give bare numbers, in µg/mL.

| SMILES_ENTRY | ASSAY_ENDPOINT | UNITS_OF_MEASURE | OBSERVED |
| --- | --- | --- | --- |
| O=C1C=CCCN1C(=O)/C=C/c1ccncc1 | solubility | µg/mL | 46.2 |
| O=C1C=CCCN1C(=O)/C=C/c1ccc2ccccc2n1 | solubility | µg/mL | 2.41 |
| COc1cc(/C=C/C(=O)N2CCC=CC2=O)cc(OC)c1OC | solubility | µg/mL | 1.63 |
| O=C1C=CCCN1C(=O)/C=C/c1cnccn1 | solubility | µg/mL | 59.8 |
| O=C1C=CCCN1C(=O)/C=C/c1cccnc1 | solubility | µg/mL | 45.3 |
| O=C1C=CCCN1C(=O)/C=C/c1cnc2ccccc2c1 | solubility | µg/mL | 1.95 |

Need solubility for each of these compounds.
1. Cc1nccnc1/C=C/C(=O)N1CCC=CC1=O
2. O=C1C=CCCN1C(=O)/C=C/c1ccccn1
3. Cc1cnc(/C=C/C(=O)N2CCC=CC2=O)cn1

48.2
40.4
47.9

Entry source: ChEMBL document CHEMBL4190248
